Assay target: Grb2 SH2 (UniProt P62993)
Sequence (P62993 whole entry, looked up, the tested form may be a part): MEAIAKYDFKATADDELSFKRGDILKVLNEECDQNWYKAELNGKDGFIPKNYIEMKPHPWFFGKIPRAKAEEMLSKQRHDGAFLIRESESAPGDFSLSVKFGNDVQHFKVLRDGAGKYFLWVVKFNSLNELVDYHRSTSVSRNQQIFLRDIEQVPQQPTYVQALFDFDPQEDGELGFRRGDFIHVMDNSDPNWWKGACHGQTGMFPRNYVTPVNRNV
Test description: SH2 binding enrichment of the phosphorylated peptide, bacterial display (enrichment ratio); higher = better substrate or ligand; peptides without Tyr show the background;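 note: peptide library displayed on the E. coli surface as eCPX fusions, selected cells deep-sequenced, score is each peptide's frequency after selection divided by its frequency in the input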
Parameter: SH2 binding enrichment. Scope: all listed entries.
Give your answer as a number; write no unit.

>>> measured("KDDEKYLDVSR [MTM1_Y260_I264S]")
0.794
>>> measured("MEKEKYVSFIS [JMJD1C_Y596_YF]")
0.711
>>> measured("RVGNMYMRGLS [ABCG8_Y209_V210M]")
1.42
>>> measured("EIEFLYNENTV [IARS1_Y680]")
0.682
>>> measured("ACDALYPPGPP")
1.07
>>> measured("TSNQEYLDLSM [FGFR1_Y766]")
0.863
>>> measured("LTTPTFGDLNH [TUBB_Y222_Y222F]")
0.604
>>> measured("PFVFFYSFLLK [PTEN_Y178_R173P_YF]")
1.04
>>> measured("IRTGIYHGGEP [PIK3CA_Y361_V356I]")
0.751
>>> measured("TKVTFYKQPMF [GBA_Y451_D448V]")
0.777

Reported SH2 binding enrichment of NFFDLYGGEKF [PTPN11_Y66_D61N_YF] : 1.02

Reported SH2 binding enrichment of DDIPLYLKGGV [COX7A2_Y44_E40D] : 0.862

Reported SH2 binding enrichment of IRTDAYVPAMT [RPE65_Y89_R91P] : 0.817

Reported SH2 binding enrichment of RRNNSYTCFTA [SLC20A2_Y386_YF] : 0.7

Reported SH2 binding enrichment of LRTAVYHEILI [CREBBP_Y1450] : 0.86

Reported SH2 binding enrichment of TLQIMYGCDVG [HLA-A_Y123_I119L] : 0.851

Measured values drawn from the supplement of paper PMC10065799 for this set.
